Recorded values, source paper PMC9468151.

- System: BMM cells
- experimentNotes: Osteoclastogenic assay of WT, single-point mutated sRANKL and L-RANKL
- Type: cell-based, mouse
- assayConditions: BMMs, M-CSF 10 ng/mL, sRANKL protein 100 ng/mL
readoutName: number of osteoclasts (fig. 1f)

INSERT INTO measurements (molecule, readoutname, testresult) VALUES
  ('E227A: single-point mutated rat sRANKL (protein, left off: His6, N-terminal, cleaved | SUMO, N-terminal, cleaved, single-point mutated rat sRANKL) KPEAQPFAHLTINAADIPSGSHKVSLSSWYHDRGWAKISNMTLSNGKLRVNQDGFYYLYANICFRHHATSGSVPADYLQLMVYVVKTSIKIPSSHNLMKGGSTKNWSGNSEFHFYSINVGGFFKLRAGEEISVQVSNPSLLDPDQDATYFGAFKVQDID', 'number of osteoclasts (fig. 1f)', 0),
  ('H226A: single-point mutated rat sRANKL (protein, UniProt Q9ESE2 69-318, looked up, variant H226A, extracellular domain, single-point mutated rat sRANKL) extracellular domain: LYFRAQMDPNRISEDSTRCFYRILRLRENTGLQDSTLESEDTEALPDSCRRMKQAFQGAVQRELQHIVGPQRFSGVPAMMEGSWLDVARRGKPEAQPFAHLTINAADIPSGSHKVSLSSWYHDRGWAKISNMTLSNGKLRVNQDGFYYLYANICFRHAETSGSVPADYLQLMVYVVKTSIKIPSSHNLMKGGSTKNWSGNSEFHFYSINVGGFFKLRAGEEISVQVSNPSLLDPDQDATYFGAFKVQDID', 'number of osteoclasts (fig. 1f)', 0);
